Would you mind telling me the reported CC50 of each entry?
method.summary: Cytotoxicity against human MT2 cells
Assay type: cell-based

QUERY: Look up and report measured CC50 for this entry: `Cc1nc2cc(-c3ncc(Cc4ccc(F)cc4)s3)nn2c(-c2cc(F)c3c(c2C)CCCO3)c1[C@H](OC(C)(C)C)C(=O)O`
RESULT: > 20 µM

QUERY: Look up and report measured CC50 for this entry: `Cc1nc2cc(C(=O)NCCN3CCOCC3)nn2c(-c2cc(F)c3c(c2C)CCCO3)c1[C@H](OC(C)(C)C)C(=O)O`
RESULT: > 40 µM

QUERY: Look up and report measured CC50 for this entry: `Cc1nc2cc(C(=O)NCC3CCCCC3)nn2c(-c2cc(F)c3c(c2C)CCCO3)c1[C@H](OC(C)(C)C)C(=O)O`
RESULT: > 40 µM

QUERY: Look up and report measured CC50 for this entry: `Cc1cc(CNC(=O)c2cc3nc(C)c([C@H](OC(C)(C)C)C(=O)O)c(-c4cc(F)c5c(c4C)CCCO5)n3n2)ccc1F`
RESULT: > 40 µM

QUERY: Look up and report measured CC50 for this entry: `Cc1nc2cc(C(=O)NCCC3CCOCC3)nn2c(-c2cc(F)c3c(c2C)CCCO3)c1[C@H](OC(C)(C)C)C(=O)O`
RESULT: > 40 µM

QUERY: Look up and report measured CC50 for this entry: `COc1cc(F)ccc1CNC(=O)c1cc2nc(C)c([C@H](OC(C)(C)C)C(=O)O)c(-c3cc(F)c4c(c3C)CCCO4)n2n1`
RESULT: > 40 µM

QUERY: Look up and report measured CC50 for this entry: `Cc1nc2cc(C(=O)NCc3ccc(F)cc3-n3cncn3)nn2c(-c2cc(F)c3c(c2C)CCCO3)c1[C@H](OC(C)(C)C)C(=O)O`
RESULT: > 40 µM

QUERY: Look up and report measured CC50 for this entry: `CNC(=O)c1cc(F)ccc1CNC(=O)c1cc2nc(C)c([C@H](OC(C)(C)C)C(=O)O)c(-c3cc(F)c4c(c3C)CCCO4)n2n1`
RESULT: > 40 µM

QUERY: Look up and report measured CC50 for this entry: `Cc1nc2cc(C(=O)NCc3ccc(F)cc3O)nn2c(-c2cc(F)c3c(c2C)CCCO3)c1[C@H](OC(C)(C)C)C(=O)O`
RESULT: > 40 µM

QUERY: Look up and report measured CC50 for this entry: `CCCc1cc(CNC(=O)c2cc3nc(C)c([C@H](OC(C)(C)C)C(=O)O)c(-c4cc(F)c5c(c4C)CCCO5)n3n2)ccc1F`
RESULT: > 20 µM

QUERY: Look up and report measured CC50 for this entry: `Cc1nc2cc(-c3ncc(-c4ccc(F)cc4)s3)nn2c(-c2cc(F)c3c(c2C)CCCO3)c1[C@H](OC(C)(C)C)C(=O)O`
RESULT: > 20 µM

QUERY: Look up and report measured CC50 for this entry: `Cc1nc2cc(C(=O)NCc3ccc(F)cc3S(C)(=O)=O)nn2c(-c2cc(F)c3c(c2C)CCCO3)c1[C@H](OC(C)(C)C)C(=O)O`
RESULT: > 40 µM

QUERY: Look up and report measured CC50 for this entry: `CCc1cc(CNC(=O)c2cc3nc(C)c([C@H](OC(C)(C)C)C(=O)O)c(-c4cc(F)c5c(c4C)CCCO5)n3n2)ccc1F`
RESULT: > 40 µM

QUERY: Look up and report measured CC50 for this entry: `Cc1nc2cc(C(=O)NCc3ccc(F)cc3)nn2c(-c2cc(F)c3c(c2C)CCCO3)c1[C@H](OC(C)(C)C)C(=O)O`
RESULT: > 40 µM
